Please provide measured cell viability for the entries that follow.
test system: Calu-3; assay: cell viability relative to DMSO; higher = less toxic; settings: 72 h; 100 nM
Provide the measurement as a number trailed by its unit.

Before answering, review these 3 worked examples.
>  <molecule>
CC=C1C(=O)C[C@H]2[C@@H]3CCC4=CC(=O)CC[C@]4(C)[C@H]3CC[C@]12C

>  <measurement>
100%

$$$$
>  <molecule>
Cc1cccc(C)c1OCC(=O)N[C@@H](Cc1ccccc1)[C@@H](O)C[C@H](Cc1ccccc1)NC(=O)[C@H](C(C)C)N1CCCNC1=O

>  <measurement>
97.3%

$$$$
>  <molecule>
O=C(C[S+]([O-])C(c1ccccc1)c1ccccc1)NO (configuration not stated)

>  <measurement>
98.4%

$$$$

For the 5 molecules below, give their cell viability values.
1. CN1CCN(c2cccc3[nH]c(=O)oc23)CC1
2. C#C[C@]1(OC(C)=O)CC[C@H]2[C@@H]3CCC4=C[C@@H](OC(C)=O)CC[C@@H]4[C@H]3CC[C@@]21C [ethynodiol-diacetate]
3. COc1ccncc1C(=O)NC(=O)Nc1ccc(-c2ccccc2)c(C(F)(F)F)c1
4. N#Cc1cccc(C(=O)Nc2cc(-c3ccccc3)nn2-c2ccccc2)c1
5. Nc1ncnc2c1ncn2[C@@H]1O[C@H](COP(=O)(O)OP(=O)(O)OP(=O)(O)O)[C@@H](O)[C@H]1O [ADENOSINE TRIPHOSPHATE DISODIUM]

**Result**
102%
103%
93.2%
101%
104%

For the 7 molecules below, give their cell viability values.
1. CCS(=O)(=O)Nc1ccc2c(c1)/C(=C(/Nc1ccc(CN3CCCCC3)cc1)c1ccccc1)C(=O)N2
2. NC(=O)CC[C@H](N)C(=O)O
3. CCOC(=O)C1=C[C@@H](OC(CC)CC)[C@H](NC(C)=O)[C@@H](N)C1 [oseltamivir-phosphate]
4. COc1ccc(CNCc2cccc3ccccc23)cc1
5. CN1[C@@H]2CC[C@H]1C[C@@H](OC(=O)[C@H](CO)c1ccccc1)C2
6. CCC1(C2=NCCN2)Cc2ccccc2O1 (configuration not stated)
7. CCN(CC)CCOCCOC(=O)C1(c2ccccc2)CCCC1

**Result**
["84.8%", "96.9%", "104%", "102%", "99.9%", "109%", "104%"]

For the 2 molecules below, give their cell viability values.
1. COc1ccc(CN(CCN(C)C)c2ncccn2)cc1
2. CCOc1cc(C(C)(C)C)ccc1C1=N[C@@](C)(c2ccc(Cl)cc2)[C@@](C)(c2ccc(Cl)cc2)N1C(=O)N1CCN(CCCS(C)(=O)=O)CC1

**Result**
96.9%
101%
